TEST TARGET: RORγ (UniProt P51449)
Construct: hRORg-LBD|aa259-518|NP_005051.2; hRORgt|aa1-497|NP_001001523 (RORg, t isoform, 497aa); mRORg-LBD|aa264-516|NP_035411
Type: cell-based
ASSAY CONTEXT: firefly (FF) luciferase, 293T cells, 16 h

>  <COMPOUND>
CCNC(=O)c1cc(CC2CCCCC2)n(-c2cc(C(C)(C)C)cc(C(C)(C)C)c2)n1 [Example 102/1]

>  <LIMIT SIGN>
=

>  <pIC50 (FF)>
5.9

$$$$
>  <COMPOUND>
Cn1c(C(=O)N[C@H]2C[C@H](C(=O)O)C2)cc(-c2cc(C(C)(C)C)cc(C3(C)CC3)c2)c1CC1CCCCC1 [Example 8]

>  <LIMIT SIGN>
=

>  <pIC50 (FF)>
7.6

$$$$
>  <COMPOUND>
CC(C)(C)c1cc(-c2nc(C(=O)NC3CC3)nn2CC2CCCCC2)cc(C(C)(C)C)c1O [308/2]

>  <LIMIT SIGN>
=

>  <pIC50 (FF)>
6.2

$$$$
>  <COMPOUND>
Cn1c(C(=O)NC2CCS(=O)(=O)CC2)cc(-c2ccc(S(=O)(=O)NC(C)(C)C)c3ccccc23)c1CC1CCCCC1 [8/6]

>  <LIMIT SIGN>
=

>  <pIC50 (FF)>
7.8

$$$$
>  <COMPOUND>
CC(C)(O)CNC(=O)c1nn(-c2cc(C(C)(C)C)cc(C(C)(C)C)c2)c(CC2CCCCC2)c1Cl [103/5]

>  <LIMIT SIGN>
=

>  <pIC50 (FF)>
6.2

$$$$
>  <COMPOUND>
Cc1c(C(=O)NC2CCOCC2)cc(-c2ccc(S(=O)(=O)NC(C)(C)C)c(C(F)(F)F)c2)n1CC1COC1 [302/3]

>  <LIMIT SIGN>
=

>  <pIC50 (FF)>
6.3

$$$$
>  <COMPOUND>
CC(C)(C)c1cc(-n2nc(C(=O)NCc3cnco3)c(Cl)c2CC2CCCCC2)cc(C(C)(C)C)c1 [103/7]

>  <LIMIT SIGN>
=

>  <pIC50 (FF)>
6.3

$$$$
>  <COMPOUND>
Cn1c(C(=O)NCC(C)(C)O)cc(-c2ccc(S(=O)(=O)NC(C)(C)C)c3ccccc23)c1CC1CCCCC1 [8/7]

>  <LIMIT SIGN>
=

>  <pIC50 (FF)>
7.8

$$$$
>  <COMPOUND>
Cc1c(C(=O)N[C@H]2C[C@H](C(=O)O)C2)cn(-c2cc(C(C)(C)C)cc(C3(C)CC3)c2)c1S(=O)(=O)C1CCCCC1 [Example 23]

>  <LIMIT SIGN>
=

>  <pIC50 (FF)>
6.4

$$$$
>  <COMPOUND>
Cc1c(C(=O)N[C@H]2C[C@H](C(=O)O)C2)cn(-c2cc(C(C)(C)C)cc(C3(C)CC3)c2)c1C(=O)c1ccccc1 [Example 301]

>  <LIMIT SIGN>
=

>  <pIC50 (FF)>
6.7

$$$$
>  <COMPOUND>
Cc1c(C(=O)NC2CCOCC2)cn(-c2cc(Br)cc(C(C)(C)C)c2)c1C=C1CCCCC1 [Example 2]

>  <LIMIT SIGN>
=

>  <pIC50 (FF)>
6.4

$$$$
>  <COMPOUND>
CC(C)(C)c1cc(-n2nc(C(=O)N[C@H]3C[C@H](C(=O)O)C3)c(Cl)c2OC2CCCCC2)cc(C2(C)CC2)c1 [Example 111]

>  <LIMIT SIGN>
=

>  <pIC50 (FF)>
7.3

$$$$
>  <COMPOUND>
Cc1c(C(=O)N[C@H]2C[C@H](C(=O)O)C2)cn(-c2cc(C(C)(C)C)cc(C3(C)CC3)c2)c1CC1CCCCC1 [1/5]

>  <LIMIT SIGN>
=

>  <pIC50 (FF)>
7.6

$$$$
>  <COMPOUND>
Cn1c(C(=O)NCC2(O)CCS(=O)(=O)CC2)cc(-c2ccc(S(=O)(=O)NC(C)(C)C)c3ccccc23)c1CC1CCCCC1 [8/5]

>  <LIMIT SIGN>
=

>  <pIC50 (FF)>
7.6

$$$$
>  <COMPOUND>
Cn1c(C(=O)NC23CCC(C(=O)O)(CC2)CC3)cc(-c2ccc(S(=O)(=O)NC(C)(C)C)c3ccccc23)c1CC1CCCCC1 [8/8]

>  <LIMIT SIGN>
=

>  <pIC50 (FF)>
8.4

$$$$
>  <COMPOUND>
CC(C)(C)NS(=O)(=O)c1ccc(-c2nc(C(=O)NC3CCOCC3)nn2CC2CCCCC2)cc1C(C)(C)C [308/9]

>  <LIMIT SIGN>
=

>  <pIC50 (FF)>
5.6

$$$$
>  <COMPOUND>
CC(=O)NS(=O)(=O)c1nc(-c2cc(C(C)(C)C)cc(C(C)(C)C)c2)n(CC2CCCCC2)n1 [Example 310]

>  <LIMIT SIGN>
<

>  <pIC50 (FF)>
4.7

$$$$
>  <COMPOUND>
Cn1c(C(=O)NC2CCOCC2)cc(-c2cc(C(C)(C)C)cc(C3(C)CC3)c2)c1CC1CCCCC1 [8/3]

>  <LIMIT SIGN>
=

>  <pIC50 (FF)>
7.1

$$$$
>  <COMPOUND>
COC(c1c(C)c(C(=O)NC2CCOCC2)cn1-c1cc(C(C)(C)C)cc(C2(C)CC2)c1)C1CCCCC1 (centres unmarked) [Example 14]

>  <LIMIT SIGN>
=

>  <pIC50 (FF)>
6.1

$$$$
>  <COMPOUND>
CC(C)(C)NS(=O)(=O)c1ccc(-c2cc(C(=O)NC3CCS(=O)(=O)CC3)nn2CC2CCCCC2)c(Cl)c1Cl [Example 112/1]

>  <LIMIT SIGN>
=

>  <pIC50 (FF)>
7.5

$$$$
>  <COMPOUND>
Cc1c(C(=O)NC2CCOCC2)cc(-c2ccc(S(=O)(=O)NC(C)(C)C)c(C(F)(F)F)c2)n1CC1CCCOC1 (centres unmarked) [302/5]

>  <LIMIT SIGN>
=

>  <pIC50 (FF)>
6.2

$$$$
>  <COMPOUND>
CC(C)(C)NS(=O)(=O)c1ccc(-c2cc(C(=O)NC34CCC(C(=O)O)(CC3)CC4)nn2CC2CCCCC2)c(Cl)c1Cl [112/2]

>  <LIMIT SIGN>
=

>  <pIC50 (FF)>
6.9

$$$$
>  <COMPOUND>
CC(C)(C)c1cc(-n2nc(C(=O)NS(C)(=O)=O)cc2CC2CCCCC2)cc(C(C)(C)C)c1 [Example 312/1]

>  <LIMIT SIGN>
<

>  <pIC50 (FF)>
4.7

$$$$
>  <COMPOUND>
Cn1c(C(=O)NCCC(C)(C)C(=O)O)cc(-c2ccc(S(=O)(=O)NC(C)(C)C)c(C(C)(C)C)c2)c1CC1CCCCC1 [Example 8/1]

>  <LIMIT SIGN>
=

>  <pIC50 (FF)>
7.0

$$$$
